Molecular target: T1, human oxytocin receptor (human, UniProt P30559 1-389)
T1 construct: whole, on cells; functional assays used the whole cells; also called hOTR; OTR
T1 sequence (looked up): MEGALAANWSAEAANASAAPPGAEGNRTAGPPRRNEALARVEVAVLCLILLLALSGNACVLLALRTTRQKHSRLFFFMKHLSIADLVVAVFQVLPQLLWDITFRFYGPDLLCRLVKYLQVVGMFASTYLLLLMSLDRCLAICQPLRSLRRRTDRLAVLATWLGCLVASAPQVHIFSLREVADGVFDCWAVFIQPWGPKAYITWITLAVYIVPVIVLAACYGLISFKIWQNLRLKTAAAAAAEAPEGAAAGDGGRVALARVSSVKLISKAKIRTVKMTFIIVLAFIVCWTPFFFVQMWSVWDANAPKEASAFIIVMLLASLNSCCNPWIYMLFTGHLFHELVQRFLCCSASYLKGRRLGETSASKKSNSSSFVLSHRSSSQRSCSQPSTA
Assay: radioligand displacement (3H-OT), SPA beads, COS-1 membranes
EXPERIMENTAL_ENDPOINT: IC50

Incoming: What does the record list as IC50 for XYIQNXPLG (L-selenocysteine at positions 1 and 6, diselenide bridge; free C-terminal carboxylic acid, also called [Se-Se]-OT-OH) [[C1,6U]-OT-OH] ?
Outgoing: 1280 nM

// data source = patent US20130130985A1
